- target_entity: T1, cynoNectin4-mFc (cyno, UniProt A0A2K5WES1 32-349)
- T1 construct: Immobilized on the SPR chip; also called cyanoNectin4; not shown: mFc (mouse Fc)
- T1 sequence: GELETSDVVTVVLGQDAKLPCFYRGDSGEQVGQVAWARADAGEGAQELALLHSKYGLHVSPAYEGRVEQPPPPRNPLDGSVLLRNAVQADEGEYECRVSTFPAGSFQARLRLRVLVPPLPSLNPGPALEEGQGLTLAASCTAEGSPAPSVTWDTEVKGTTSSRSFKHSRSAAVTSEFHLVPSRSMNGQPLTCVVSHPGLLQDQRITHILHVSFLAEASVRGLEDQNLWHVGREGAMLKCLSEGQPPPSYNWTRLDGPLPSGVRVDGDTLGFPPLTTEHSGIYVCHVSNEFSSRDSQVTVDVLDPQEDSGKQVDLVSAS
- method_summary: SPR, cynoNectin4-mFc immobilized, pH 6.5
reported_metric: kon (M⁻¹ s⁻¹)
Could you give me the number in M⁻¹ s⁻¹? Just the number is fine.

These solved cases illustrate the format of a correct answer.
binder	reported_metric	output_unit	measurement
BAP-143-06-24-16 (antibody, V domains shown, Used as a conjugate with a linker payload (CAB ADC)) VH: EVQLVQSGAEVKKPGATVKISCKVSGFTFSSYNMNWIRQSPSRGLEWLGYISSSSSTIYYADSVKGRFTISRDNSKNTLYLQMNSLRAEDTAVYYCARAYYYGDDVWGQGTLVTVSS VL: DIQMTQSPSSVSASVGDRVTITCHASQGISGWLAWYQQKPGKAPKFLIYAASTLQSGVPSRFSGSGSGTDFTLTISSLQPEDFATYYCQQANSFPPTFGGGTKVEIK	kon	M⁻¹ s⁻¹	1.68e+06
BAP-143-07-03-12 (antibody, V domains shown, Used as a conjugate with a linker payload (CAB ADC)) VH: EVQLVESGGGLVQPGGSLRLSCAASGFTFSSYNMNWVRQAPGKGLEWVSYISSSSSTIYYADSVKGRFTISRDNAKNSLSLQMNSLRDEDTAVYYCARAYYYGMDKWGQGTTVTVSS VL: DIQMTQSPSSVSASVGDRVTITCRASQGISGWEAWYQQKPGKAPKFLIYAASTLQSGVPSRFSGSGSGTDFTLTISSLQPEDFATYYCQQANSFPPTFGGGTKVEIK	kon	M⁻¹ s⁻¹	549000
BAP-143-00-01 (antibody, V domains shown, Used as a conjugate with a linker payload (CAB ADC)) VH: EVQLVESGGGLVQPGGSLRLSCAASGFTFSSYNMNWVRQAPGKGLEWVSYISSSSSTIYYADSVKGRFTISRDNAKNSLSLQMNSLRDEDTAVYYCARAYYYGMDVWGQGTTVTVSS VL: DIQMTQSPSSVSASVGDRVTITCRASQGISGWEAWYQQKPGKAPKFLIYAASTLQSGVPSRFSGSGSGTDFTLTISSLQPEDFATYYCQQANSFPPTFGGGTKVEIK	kon	M⁻¹ s⁻¹	457000

Turning now to a further binder:
Exercise: Query kon for BAP-143-06-33-16 (antibody, V domains shown, Used as a conjugate with a linker payload (CAB ADC)) VH: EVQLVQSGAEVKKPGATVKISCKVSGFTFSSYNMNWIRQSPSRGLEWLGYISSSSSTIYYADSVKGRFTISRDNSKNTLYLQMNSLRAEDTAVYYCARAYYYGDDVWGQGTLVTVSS VL: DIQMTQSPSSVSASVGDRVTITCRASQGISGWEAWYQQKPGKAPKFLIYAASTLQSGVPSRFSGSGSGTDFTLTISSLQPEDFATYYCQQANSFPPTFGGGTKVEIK
Key: 1.6e+06

Attribution: patent US20230235054A1
